Below, each entry is listed alongside its reported residual activity.
Molecular target: Serine/threonine-protein kinase TAO1 (Homo sapiens)
Conditions: at 1 µM
// note: answer is a bare numeric in %

Record excerpt, results attached:
1. CCN(CC)CCNC(=O)c1c(C)[nH]c(/C=C2\C(=O)Nc3ccc(Cl)cc32)c1C: 71
2. CCCCc1c(-c2ccc(OC)cc2)[nH]c2nccnc12: 48
3. CC(C)(C)n1nc(Cc2cccc3ccccc23)c2c(N)ncnc21: 87
4. Fc1ccc(-c2nc3n(c2-c2ccncc2)CCS3)cc1: 99
5. CCCCc1c(-c2ccc(O)cc2)[nH]c2nccnc12: 36

Data point: NC(=O)c1ccc(-c2nc(-c3ccc4c(c3)OCCO4)c(-c3ccccn3)[nH]2)cc1 ; residual activity = 96
